- target system: adenosine A3 receptor (Homo sapiens (Human), UniProt P0DMS8)
- Sequence (P0DMS8 whole entry): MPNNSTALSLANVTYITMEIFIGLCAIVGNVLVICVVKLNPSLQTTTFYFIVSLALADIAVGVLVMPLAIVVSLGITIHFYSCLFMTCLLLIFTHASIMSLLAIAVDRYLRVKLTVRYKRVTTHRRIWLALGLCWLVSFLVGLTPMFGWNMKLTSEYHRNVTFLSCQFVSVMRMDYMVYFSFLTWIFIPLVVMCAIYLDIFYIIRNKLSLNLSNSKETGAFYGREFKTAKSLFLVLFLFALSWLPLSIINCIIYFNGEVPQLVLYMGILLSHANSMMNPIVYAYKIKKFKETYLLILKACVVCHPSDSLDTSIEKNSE
- test summary: A3 cAMP IC50 assay (Table 1)
- Format: biochemical
pIC50: −log10 of the molar value.

{"smi": "C[C@H](NC(=O)c1nc(N[C@@H](C)c2ccccn2)nc2ccsc12)c1ccccn1", "pIC50": "7.00 to 7.30"}
{"smi": "CNc1cc2nc(NCc3ccccn3)nc(C(=O)N3CCCC3)c2s1", "pIC50": "7.00 to 7.30"}
{"smi": "CO[C@H]1CCN(C(=O)c2nc(N[C@@H](C)c3cccnc3)nc3ccsc23)C1", "pIC50": "< 6.30"}
{"smi": "O=C(NC1CCC1)c1nc(NCc2cc(F)cc(F)c2)nc2ccsc12", "pIC50": "< 6.30"}
{"smi": "C[C@H](Nc1nc(C(=O)NCc2ccccn2)c2sccc2n1)c1cccnc1", "pIC50": "7.00 to 7.30"}
{"smi": "CNc1cc2nc(N[C@@H](C)c3ccccn3)nc(C(=O)N3CC[C@@H](F)C3)c2s1", "pIC50": "7.00 to 7.30"}
{"smi": "C[C@H](Nc1nc(C(=O)NC[C@@H](C)O)c2sccc2n1)c1ccccn1", "pIC50": "< 6.30"}
{"smi": "O=C(c1nc(NCc2cncc(F)c2)nc2ccsc12)N1CC[C@@H](F)C1", "pIC50": "< 6.30"}
{"smi": "C[C@H](Nc1nc(C(=O)NC[C@@H](C)O)c2sccc2n1)c1cncc(F)c1", "pIC50": "< 6.30"}
{"smi": "C[C@H](Nc1nc(C(=O)N2CC[C@H](O)C2)c2sccc2n1)c1cccc(F)c1", "pIC50": "7.00 to 7.30"}
{"smi": "CNc1cc2nc(N[C@@H](C)c3cccnc3)nc(C(=O)N3CC[C@@H](F)C3)c2s1", "pIC50": "7.00 to 7.30"}
{"smi": "C[C@H](Nc1nc(C(=O)N2CCC2)c2sc(N)cc2n1)c1ccccn1", "pIC50": "7.00 to 7.30"}
{"smi": "COCCNC(=O)c1nc(N[C@@H](C)c2ccccn2)nc2ccsc12", "pIC50": "7.00 to 7.30"}
{"smi": "CNc1cc2nc(N[C@@H](C)c3cccnc3)nc(C(=O)N3CC[C@H](F)C3)c2s1", "pIC50": "7.00 to 7.30"}
{"smi": "C[C@H]1CCN(C(=O)c2nc(N[C@@H](C)c3cccnc3)nc3ccsc23)C1", "pIC50": "< 6.30"}
{"smi": "C[C@H](Nc1nc(C(=O)N[C@H]2C[C@@H](O)C2)c2sccc2n1)c1ccccn1", "pIC50": "< 6.30"}
{"smi": "C[C@H](Nc1nc(C(=O)N2CCC2)c2sccc2n1)c1cccc(F)c1", "pIC50": "< 6.30"}
{"smi": "C[C@H](Nc1nc(C(=O)N2CC[C@@H](F)C2)c2sccc2n1)c1ccccn1", "pIC50": "< 6.30"}
{"smi": "O=C(c1nc(NCc2cncc(F)c2)nc2ccsc12)N1CCC1", "pIC50": "< 6.30"}
{"smi": "O=C(NCCO)c1nc(NCc2cc(F)cc(F)c2)nc2ccsc12", "pIC50": "< 6.30"}
{"smi": "CNc1cc2nc(N[C@@H](C)c3cncc(F)c3)nc(C(=O)N3CC[C@H](O)C3)c2s1", "pIC50": "< 6.30"}
{"smi": "C[C@H](Nc1nc(C(=O)N2CC(F)(F)C2)c2sccc2n1)c1cccnc1", "pIC50": "< 6.30"}
{"smi": "C[C@H](Nc1nc(C(=O)NC2CCC2)c2sccc2n1)c1ccccn1", "pIC50": "6.30 to 7.00"}
{"smi": "O=C(c1nc(NCc2cncc(F)c2)nc2ccsc12)N1CC(O)C1", "pIC50": "< 6.30"}
{"smi": "C[C@H](Nc1nc(C(=O)N[C@H]2CCN(C(=O)OC(C)(C)C)C2)c2sccc2n1)c1ccccn1", "pIC50": "7.30 to 8.00"}
{"smi": "CNc1cc2nc(N[C@@H](C)c3cccnc3)nc(C(=O)N3CCC3)c2s1", "pIC50": "7.00 to 7.30"}
{"smi": "COC1CN(C(=O)c2nc(N[C@@H](C)c3cncc(F)c3)nc3ccsc23)C1", "pIC50": "< 6.30"}
{"smi": "O=C(c1nc(NCc2ccccn2)nc2ccsc12)N1CCCC1", "pIC50": "< 6.30"}
{"smi": "COC1CN(C(=O)c2nc(N[C@@H](C)c3cccnc3)nc3ccsc23)C1", "pIC50": "< 6.30"}
{"smi": "C[C@H](Nc1nc(C(=O)NCc2ccccc2)c2sccc2n1)c1cccnc1", "pIC50": "7.00 to 7.30"}
{"smi": "O=C(c1nc(NCc2cccc(F)c2)nc2ccsc12)N1CCCC1", "pIC50": "< 6.30"}
{"smi": "O=C(NCCO)c1nc(NCc2cncc(F)c2)nc2ccsc12", "pIC50": "< 6.30"}
{"smi": "C[C@H](Nc1nc(C(=O)N2CC[C@@H](O)C2)c2sccc2n1)c1cccc(F)c1", "pIC50": "< 6.30"}
{"smi": "C[C@H](Nc1nc(C(=O)N2CC[C@H](O)C2)c2sccc2n1)c1cncc(F)c1", "pIC50": "< 6.30"}
